Each record's logP is compared with class 0 (below -0.04), class 1 (-0.04 to below 3), class 2 (3 or more) to give its class.

Task item: Which bin, given its logP, does "CCOc1cccc(NC(=O)OCCN2CCOCC2)c1" occupy?
Reply: class 1

Task item: Which bin, given its logP, does "Brc1ccc(Br)c(-c2cc(Br)c(Br)cc2Br)c1" occupy?
Reply: class 2

Task item: Which bin, given its logP, does "C[C@H](O)C(=O)Nc1c(I)c(C(=O)NC(CO)CO)c(I)c(C(=O)NC(CO)CO)c1I" occupy?
Reply: class 0

Task item: Which bin, given its logP, does O=C(O)C(OCc1ccc(Cl)cc1)c1ccccc1 (stereo unspecified) occupy?
Reply: class 1

Task item: Which bin, given its logP, does CCCCCc1cc(CCCCN2CC(=O)c3ccccc3C2=O)c2c(c1)OC(C)(C)C1CC=C(C)CC21 (stereo unspecified) occupy?
Reply: class 2

Task item: Which bin, given its logP, does CC1CC2C3CCC4=CC(=O)C=CC4(C)C3(F)C(O)CC2(C)C1(O)C(=O)NCCCl (stereo unspecified) occupy?
Reply: class 1

Task item: Which bin, given its logP, does CCCCNC(=O)C1(O)C(C)CC2C3CCC4=CC(=O)C=CC4(C)C3(F)C(O)CC21C (stereo unspecified) occupy?
Reply: class 2

Task item: Which bin, given its logP, does O=c1nc(N=CN2CCCCC2)ccn1C1OC(CO)C(O)C1O (stereo unspecified) occupy?
Reply: class 0

Task item: Which bin, given its logP, does "CCCCCOc1ccccc1NC(=O)OCCN1CCCCC1" occupy?
Reply: class 2

Task item: Which bin, given its logP, does O=c1ccn(C2C=C(CO)C(O)C2O)c(=O)[nH]1 (stereo unspecified) occupy?
Reply: class 0

* * *

With a cut-off of 2, any logP strictly below it is called 1; any logP meeting it or above is called -1.

Task item: Does the reported logP of "O=S(=O)(NCc1ccccc1)C(F)(F)F" stay below 2?
Reply: -1

Task item: Does the reported logP of "COC(=O)n1cc(F)c(=O)[nH]c1=O" stay below 2?
Reply: 1

Task item: Does the reported logP of O=c1[nH]c(Nc2ccccc2)nc2c1ncn2CC(O)CO (configuration not stated) stay below 2?
Reply: 1

Task item: Does the reported logP of "CCCNC(=O)c1ccccc1" stay below 2?
Reply: 1

Task item: Does the reported logP of "CNC(=O)N(C)c1nnc(C(C)(C)C)s1" stay below 2?
Reply: 1

Task item: Does the reported logP of "O=C(Cn1c(=O)sc2ccc(Cl)cc21)N1CCN(CCOS(=O)(=O)O)CC1" stay below 2?
Reply: 1

Task item: Does the reported logP of "O=[N+]([O-])C=C1NCCCN1Cc1ccc(Cl)nc1" stay below 2?
Reply: 1

Task item: Does the reported logP of "CN(C)c1nc(=O)cc(-c2ccc([N+](=O)[O-])o2)s1" stay below 2?
Reply: 1

Task item: Does the reported logP of CCC(=O)C(CS(=O)(=O)c1ccc(C)cc1)c1ccc(Cl)cc1 (configuration not stated) stay below 2?
Reply: -1

Task item: Does the reported logP of CCCCC(=O)OC(C(=O)NC1C(=O)N2C(C(=O)O)=C(C)CSC12)c1ccccc1 (configuration not stated) stay below 2?
Reply: -1

Task item: Does the reported logP of "Clc1cc(Cl)c(-c2cc(Cl)c(Cl)c(Cl)c2)cc1Cl" stay below 2?
Reply: -1

Task item: Does the reported logP of "COCCCNC(=S)Cn1cnc([N+](=O)[O-])n1" stay below 2?
Reply: 1

* * *

Where a SMILES comes first, the peptide text is derived from it. [ ]: non-standard residue; d: D form. Orn = NCCC[CH](N)C(=O)O
With a cut-off of 3, any logP strictly below it is called True; any logP meeting it or above is called False.

Task item: Does the reported logP of "Cc1ccccc1NN=C(C#N)C#N" stay below 3?
Reply: True

Task item: Does the reported logP of "CCN(CC)CCSC(=NO)c1nc(C)no1" stay below 3?
Reply: True

Task item: Does the reported logP of CC1CC2C3CCC4=CC(=O)C=CC4(C)C3(F)C(O)CC2(C)C1(O)C(=O)NC(C)(C)C (stereo not drawn) stay below 3?
Reply: False

Task item: Does the reported logP of "CCNc1nc(SC)nc(C(Cl)(Cl)Cl)n1" stay below 3?
Reply: False

Task item: Does the reported logP of "O=C(O)c1c(Br)cccc1Br" stay below 3?
Reply: False

Task item: Does the reported logP of "COCCCNC(=O)C(F)(F)Cn1cnc([N+](=O)[O-])n1" stay below 3?
Reply: True

Task item: Does the reported logP of "Oc1ccc(F)c2cccnc12" stay below 3?
Reply: True

Task item: Does the reported logP of "C#CCOc1c(Cl)cc(NC=NOc2ccccc2)cc1Cl" stay below 3?
Reply: False

Task item: Does the reported logP of CC(=O)NC(CCCN)C(=O)NC(Cc1ccccc1)C(=O)NC(CC(C)C)C(N)=O (stereo not drawn) (Ac-[Orn]-Phe-Leu-NH2; configuration not given here) stay below 3?
Reply: True

Task item: Does the reported logP of "O=C1CN=C(c2ccccc2)c2cc(C(F)(F)F)ccc2N1" stay below 3?
Reply: False

Task item: Does the reported logP of "O=C(Cn1ccnc1[N+](=O)[O-])NCCCCO" stay below 3?
Reply: True

Task item: Does the reported logP of CN1CC(O)N(c2nnc(C(C)(C)C)s2)C1=O (stereo not drawn) stay below 3?
Reply: True

Task item: Does the reported logP of "CC(C)(C)C(=O)C(C#N)=NNc1cc(C(F)(F)F)ccc1Cl" stay below 3?
Reply: False

Task item: Does the reported logP of CN(C)CCn1nnnc1SCC1=C(C(=O)OCOC(=O)C(C)(C)C)N2C(=O)C(NC(=O)Cc3csc(N)n3)C2SC1 (stereo not drawn) stay below 3?
Reply: True

Task item: Does the reported logP of "CCN1C(=O)C(=O)c2c(Cl)cccc2C1=O" stay below 3?
Reply: True

Task item: Does the reported logP of "C#CCOc1c(Cl)cc(NC=NOC)cc1Cl" stay below 3?
Reply: False

Task item: Does the reported logP of "O=C1NC(=O)N(Cc2ccccc2)C(=O)C1=O" stay below 3?
Reply: True

Task item: Does the reported logP of "O=C(O)c1ccccc1N1C(=O)CCC1=O" stay below 3?
Reply: True

Task item: Does the reported logP of "CC(C)(C)C(=O)C(C#N)=NNc1cc(C(F)(F)F)cc(C(F)(F)F)c1" stay below 3?
Reply: False

Task item: Does the reported logP of "C(=C\c1ccccc1)/CN1CCN(C(c2ccccc2)c2ccccc2)CC1" stay below 3?
Reply: False

Task item: Does the reported logP of "CCCCCC(=O)OCCOCn1cnc2c(=O)[nH]c(N)nc21" stay below 3?
Reply: True

Task item: Does the reported logP of CCOc1ncnc2c1ncn2C1OC(CO)CC1F (stereo not drawn) stay below 3?
Reply: True

Task item: Does the reported logP of CC1CC2C3CCC4=CC(=O)C=CC4(C)C3(F)C(O)CC2(C)C1(O)C(=O)NC1CCCCC1 (stereo not drawn) stay below 3?
Reply: False

Task item: Does the reported logP of "CCN1C(=O)C(=O)c2c(C(N)=O)cccc2C1=O" stay below 3?
Reply: True

Task item: Does the reported logP of COP(=O)(OC)O/C(C)=C/C(=O)OC(C)c1ccccc1 (stereo not drawn) stay below 3?
Reply: False

Task item: Does the reported logP of CC(C1CC1)C(O)(Cn1cncn1)c1ccc(Cl)cc1 (stereo not drawn) stay below 3?
Reply: True

Task item: Does the reported logP of "S=C(N/N=C/c1ccc[nH]1)Nc1ccccc1" stay below 3?
Reply: False

Task item: Does the reported logP of CC(=O)OC1C(=O)C2(C)C(O)CC3OCC3(OC(C)=O)C2C(OC(=O)c2ccccc2)C2(O)CC(OC(=O)C(C)O)C(C)=C1C2(C)C (stereo not drawn) stay below 3?
Reply: True

Task item: Does the reported logP of "O=Cn1c2c(c3ccccc31)CCNC2" stay below 3?
Reply: True

Task item: Does the reported logP of "CC(=O)c1c(C)n(C)c2ccccc12" stay below 3?
Reply: True

Task item: Does the reported logP of "COC(=O)c1ccccc1CS(=O)(=O)Nc1nc(OC)cc(OC)n1" stay below 3?
Reply: True

Task item: Does the reported logP of CC(=O)C1(O)C(C)CC2C3CCC4=CC(=O)C=CC4(C)C3(F)C(O)CC21C (stereo not drawn) stay below 3?
Reply: True

Task item: Does the reported logP of CN(CC1(C)CCCO1)S(=O)(=O)c1ccc(Cl)c(S(N)(=O)=O)c1 (stereo not drawn) stay below 3?
Reply: True

Task item: Does the reported logP of CC1CC2C3CCC4=CC(=O)C=CC4(C)C3(F)C(O)CC2(C)C1(O)C(=O)NCc1ccccc1 (stereo not drawn) stay below 3?
Reply: False

Task item: Does the reported logP of OCC1CC(F)C(n2cnc3c(I)ncnc32)O1 (stereo not drawn) stay below 3?
Reply: True

Task item: Does the reported logP of "Cc1cc(C)cc(Cl)c1" stay below 3?
Reply: False

Task item: Does the reported logP of "O=[N+]([O-])c1ccc2c(O)cccc2c1" stay below 3?
Reply: False
